Test system: Danio rerio Tg(wt1b:EGFP) embryo, pronephros
method-notes: pronephric angle neck segment to proximal convoluted tubule (mean of left and right), fold change vs DMSO control; higher = larger pronephric angle
condition-info: 25 µM; exposure: 24-48 hpf
Structures can show the parent of a compound that is named as a salt.
Quick rule for you: pronephric angle neck segment at 1 or higher means yes, lower means no.

Recorded results for 5 compounds are shown here.
compound | class-name
c1ccc2[nH]c(-c3cscn3)nc2c1 [Tiabendazole] | yes
COc1cc2nc(N3CCN(C(=O)c4ccco4)CC3)nc(N)c2cc1OC [Prazosin hydrochloride] | yes
CC1COc2c(N3CCN(C)CC3)c(F)cc3c(=O)c(C(=O)O)cn1c23 (configuration not stated) [Ofloxacin] | yes
NCCc1c[nH]cn1 [Histamine dihydrochloride] | yes
CNC1(C)C2CCC(C2)C1(C)C (configuration not stated) [Mecamylamine hydrochloride] | yes

Okay, now this compound:
Query :: # check: pronephric angle neck segment of CN1CCN(C(c2ccccc2)c2ccc(Cl)cc2)CC1 (configuration not stated) [Chlorcyclizine hydrochloride] is greater than or equal to 1
Result :: no
